# credit: the supplement of paper PMC8728848

molecular target: Fuc(a1-3)[Gal(b1-4)]Glc6S; assay: glycan array binding signal (z-score within array); higher = stronger binding; settings: glycan notation: IUPAC condensed, linker removed
The sample as a whole holds a higher share of the strongest signals than the screen did.
In this section we review reported glycan array binding signal (z-score) values for a set of binders.

BINDER	glycan array binding signal (z-score)
ConA (Canavalia ensiformis), P02866 (protein) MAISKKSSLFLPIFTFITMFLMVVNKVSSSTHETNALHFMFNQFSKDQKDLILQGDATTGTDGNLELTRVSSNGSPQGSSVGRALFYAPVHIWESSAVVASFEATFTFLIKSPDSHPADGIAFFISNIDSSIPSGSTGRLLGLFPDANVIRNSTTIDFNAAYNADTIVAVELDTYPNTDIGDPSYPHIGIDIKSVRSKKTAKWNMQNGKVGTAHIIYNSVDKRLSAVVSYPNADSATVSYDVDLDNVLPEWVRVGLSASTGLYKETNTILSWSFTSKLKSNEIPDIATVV	-0.245
RBMC1 (Vibrio cholerae) (protein) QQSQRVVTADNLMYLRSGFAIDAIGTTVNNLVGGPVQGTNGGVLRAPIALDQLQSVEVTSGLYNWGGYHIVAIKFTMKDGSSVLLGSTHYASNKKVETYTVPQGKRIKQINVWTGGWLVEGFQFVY	-0.164
Epa3to2 (Candida glabrata) (protein) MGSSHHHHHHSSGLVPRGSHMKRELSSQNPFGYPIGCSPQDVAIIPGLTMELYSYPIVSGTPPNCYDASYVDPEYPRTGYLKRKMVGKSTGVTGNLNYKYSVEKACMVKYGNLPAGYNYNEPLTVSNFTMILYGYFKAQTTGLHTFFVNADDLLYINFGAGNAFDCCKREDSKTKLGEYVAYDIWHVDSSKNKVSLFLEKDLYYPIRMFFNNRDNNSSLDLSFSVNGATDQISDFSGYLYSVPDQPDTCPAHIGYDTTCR	0.316
Epa3to1 (Candida glabrata) (protein) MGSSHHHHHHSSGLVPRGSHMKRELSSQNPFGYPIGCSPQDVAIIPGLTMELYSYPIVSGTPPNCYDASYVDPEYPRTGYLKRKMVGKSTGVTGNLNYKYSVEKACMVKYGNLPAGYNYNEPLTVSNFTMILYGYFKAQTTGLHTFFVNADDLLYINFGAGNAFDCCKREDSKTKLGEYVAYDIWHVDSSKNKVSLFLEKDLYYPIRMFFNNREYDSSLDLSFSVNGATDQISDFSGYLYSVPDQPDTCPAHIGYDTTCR	0.568
Pwp3 (Candida glabrata) (protein) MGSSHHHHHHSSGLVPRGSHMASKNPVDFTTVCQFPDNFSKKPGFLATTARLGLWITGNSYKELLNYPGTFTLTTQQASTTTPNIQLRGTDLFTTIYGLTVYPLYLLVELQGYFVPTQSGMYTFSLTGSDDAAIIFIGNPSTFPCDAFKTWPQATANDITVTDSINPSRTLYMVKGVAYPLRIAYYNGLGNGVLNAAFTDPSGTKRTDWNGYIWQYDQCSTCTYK	5.3
